Cited source: patent US12084523

# system: T1, biotin-^K48Ub2 (chemically synthesized K48-linked di-ubiquitin, biotin on the distal Ub) (UniProt P0CG48 1-76, isopeptide bond from the C-terminus of the distal Ub to Lys48 of the proximal Ub; biotin at the N-terminus of the distal Ub)
# T1 construct: mature; also called Lys48-linked ubiquitin dimer
# assayExplanation: SPR, K48-Ub2
pKd: −log10 of the molar value. Starred links: 1 amine or outer side, 2 acyl side, 3 side chain; linkers in the order of their positions; H or OH if unused. Positions of bridges follow the written chain, without caps; N, C: chain ends. No end group written: not given here. mClBz = N-terminal chlorobenzyl thioether anchor (M*) that cyclises onto the Cys, the meta form of the mClBz/pClBz pair, O=C(c1cccc(C[*:3])c1)[*:2]
reportedEndpoint: pKd

[1] mClBz-GWFDDLYLFVAYCG (bridge N-13; not fully specified (bridges), also called J08 (M* = mClBz)) [J08_mClBz]
[2] WGWFDDLYLFVAYCG (position 1 is ClAc-D-Trp (M* of Table 2); macrocycle closed between the N-terminal chloroacetyl group and the Cys, also called U4i) [Ub4i cyclic peptide]
**Q:** Hi team, can someone confirm which has the larger pKd: 1 or 2 ? Thanks. Choose, then provide that item's label.
**A:** 1
(1: 8.00, 2: 7.05)

[I] mClBz-GWFDDEYLFVAYCG (bridge N-13; not fully specified (bridges)) [J08_mClBz_L6E]
[II] WWYDREYYYLGYGCG (position 1 is ClAc-D-Trp (M* of Table 2); macrocycle closed between the N-terminal chloroacetyl group and the Cys, also called U2ii) [Ub2ii cyclic peptide]
**Q:** // compare measured pKd between I and II ; output the lower one Choose, then provide that item's label.
**A:** II
(II: 7.48, I: 8.30)
